target: HLA-DR DRB1*1101 (human); test: competition with 125I-labelled peptide for purified HLA-DR
pIC50: −log10 of the molar value.
recorded-metric: pIC50

>>> recorded_measurement("RREVHIYYLEKANKI (modifications not checked) [Flu.PA.127]")
7.02
